The reported measurements were obtained from PubChem BioAssay (NCI).

# Tested on: HT29 colon
# EXPERIMENT SUMMARY: NCI-60 one-dose screen, 48 h (100 = growth as untreated, 0 = no growth, -100 = all killed)
# STATED CONDITIONS: 10 µM unless noted
This is part of a sample that, as a whole, favours compounds with a hit. Of some 83,000 tested, about 20% had one in any assay.
Record form. Attribute: growth. Fill in for each entry.
Answers are plain numbers, in %.

• CC(=O)OC[C@]12CC[C@@H]([C@@H](C)c3nnc(-c4ccncc4)o3)[C@@H]1[C@H]1CC[C@@H]3[C@@]4(C)CC[C@H](OC(C)=O)C(C)(C)[C@@H]4CC[C@@]3(C)[C@]1(C)CC2 = 63.8

List reported growth for each of these compounds:
1. CC1=C(C(=O)Nc2nc(-c3ccc(Cl)cc3)cs2)[C@H](c2ccc(O)cc2)NC(=O)N1
2. Cc1ccnc(Nc2ccc([N+](=O)[O-])c(NCCN3CCOCC3)n2)c1
3. NNCCc1ccc(NC(=O)CCCc2ccc(C(=O)Nc3ccccc3N)cc2)cc1
4. O=C1/C(=C\c2cccc3nccnc23)SC(=S)N1CCc1ccc(O)cc1

Response line:
[100, 10.9, 51.1, 116]
